tested on: HNSC; test: growth inhibition (% activity, log2 RLU normalised to DMSO / staurosporine); higher = more growth inhibition; conditions: 33 µM
Would you kindly list growth inhibition for each of these molecules?
Numbers only, in %.

Reference set (3 entries):
molecule	endpointLabel	assayResult
CN(C)CC/C=C1/c2ccccc2Sc2ccc(Cl)cc21	growth inhibition	-1.13
O=C(O)COCCN1CCN(C(c2ccccc2)c2ccc(Cl)cc2)CC1 (configuration not stated)	growth inhibition	3.36
Cc1c(NC(=O)c2cccnc2)c(=O)n(-c2ccccc2)n1C	growth inhibition	2.9

Take each entry in turn and give its growth inhibition.
1. C[C@]12CC[C@@H]3c4ccc(O)cc4CC[C@H]3[C@@H]1CC[C@@H]2O
2. C/C(O)=C(\C#N)C(=O)Nc1ccc(C(F)(F)F)cc1
3. CN1c2cc(O)c(N=NC(N)=O)cc2CC1S(=O)(=O)O (configuration not stated)
4. Nc1nc2ccc(OC(F)(F)F)cc2s1
5. NC[C@H]1O[C@H](O[C@H]2[C@H](O)[C@@H](O[C@H]3O[C@H](CO)[C@@H](O)[C@H](N)[C@H]3O)[C@H](N)C[C@@H]2N)[C@H](N)C[C@@H]1O
6. NNC(=O)c1ccncc1
7. CO[C@H]1/C=C/O[C@@]2(C)Oc3c(C)c(O)c4c(O)c(c(/C=N/N5CCN(C6CCCC6)CC5)c(O)c4c3C2=O)NC(=O)/C(C)=C\C=C\[C@H](C)[C@H](O)[C@@H](C)[C@@H](O)[C@@H](C)[C@H](OC(C)=O)[C@@H]1C
8. O=C(O)c1ccc(-n2nc(-c3ccccc3O)nc2-c2ccccc2O)cc1

Result:
1. -4.69
2. 2.85
3. -5.18
4. 4.46
5. -1.87
6. 44.1
7. 0.219
8. 1.36

---

Provide the recorded growth inhibition for the entries that follow.
tested on: HNSC; assay: growth inhibition (% activity, log2 RLU normalised to DMSO / staurosporine); higher = more growth inhibition; conditions: 33 µM
Give bare numbers, in %.

The following compounds have reported results that may help.
compound	endpointLabel	assayResult
N=C(N)c1ccc(N=NNc2ccc(C(=N)N)cc2)cc1	growth inhibition	-4.44
CC(S)C(=O)NCC(=O)O (centres undefined)	growth inhibition	0.528
CC[C@]1(O)C[C@@H]2CN(CCc3c([nH]c4ccccc34)[C@@](C(=O)OC)(c3cc4c(cc3OC)N(C)[C@H]3[C@@](O)(C(=O)OC)[C@H](OC(C)=O)[C@]5(CC)C=CCN6CC[C@]43[C@@H]65)C2)C1	growth inhibition	55.5
CCCCCCCCCCCCCCCC(=O)O[C@@H]1[C@@H](O)[C@@H](O)[C@@H]([C@H](NC(=O)[C@@H]2C[C@@H](CCC)CN2C)[C@H](C)Cl)O[C@@H]1SC	growth inhibition	-1.46
CN(C)CCCN1c2ccccc2CCc2ccccc21	growth inhibition	3.17
Cc1[nH]c(=O)c(C#N)cc1-c1ccncc1	growth inhibition	3.65
COc1ccccc1OCC(O)COC(N)=O (centres undefined)	growth inhibition	-1.62
Nc1ccn(C2CSC(CO)O2)c(=O)n1 (centres undefined)	growth inhibition	1.26

Dear colleague, could you please provide growth inhibition for the compounds listed below?
1. CC1(C)O[C@@H]2C[C@H]3[C@@H]4C[C@H](F)C5=CC(=O)C=C[C@]5(C)[C@@]4(F)[C@@H](O)C[C@]3(C)[C@]2(C(=O)CO)O1
2. CO/N=C(\C(=O)N[C@@H]1C(=O)N2C(C(=O)O)=C(CSC(=O)c3ccco3)CS[C@H]12)c1csc(N)n1
3. COC(=O)Nc1nc2cc([S+]([O-])c3ccccc3)ccc2[nH]1 (centres undefined)
4. CN1C(C(=O)Nc2ccccn2)=C(O)c2sccc2S1(=O)=O
5. CN(C)CC/C=C1/c2ccccc2COc2ccc(CC(=O)O)cc21
6. CO[C@H]1C[C@@H]2CC[C@@H](C)[C@@](O)(O2)C(=O)C(=O)N2CCCC[C@H]2C(=O)O[C@H]([C@H](C)C[C@@H]2CC[C@@H](O)[C@H](OC)C2)CC(=O)[C@H](C)/C=C(\C)[C@@H](O)[C@@H](OC)C(=O)[C@H](C)C[C@H](C)/C=C/C=C/C=C/1C
7. O=NO

Result:
1. 1.69
2. -1.6
3. 19.2
4. -0.824
5. -0.124
6. 10.4
7. -0.386

Value sought for every listed compound: growth inhibition.
1. Nc1nc(=O)c2c([nH]1)NCC(CNc1ccc(C(=O)N[C@@H](CCC(=O)O)C(=O)O)cc1)N2C=O (some centres undefined)
2. Clc1ccc(CSC(Cn2ccnc2)c2ccc(Cl)cc2Cl)cc1 (centres undefined)
3. CCCCCCCCCCC[C@@H](C[C@@H]1OC(=O)[C@H]1CCCCCC)OC(=O)[C@H](CC(C)C)NC=O
4. CCN(CC)CCOC(=O)C(c1ccccc1)c1ccccc1
5. CNS(=O)(=O)CCc1ccc2[nH]cc(C3CCN(C)CC3)c2c1

Result:
1. 0.438
2. 9.42
3. -6.06
4. 6.35
5. 1.62

Please report growth inhibition for every entry that follows.
1. Clc1ccc(CCC(Cn2ccnc2)Sc2c(Cl)cccc2Cl)cc1 (centres undefined)
2. CC(=O)O[C@]1(C(C)=O)CC[C@H]2[C@@H]3C[C@H](C)C4=CC(=O)C=C[C@]4(C)[C@@]3(F)[C@@H](O)C[C@@]21C
3. Cc1ncc([N+](=O)[O-])n1CC(C)O (centres undefined)
4. N#CC1(c2ccc(NC(=O)c3cccnc3NCc3ccncc3)cc2)CCCC1
5. O=C([O-])CC(O)(CC(=O)[O-])C(=O)[O-].O=C([O-])CC(O)(CC(=O)[O-])C(=O)[O-].[Bi+3].[K+].[K+].[K+].[K+].[K+]

Result:
10.2
0.0126
-4.53
1.96
-0.691

// batch mode: one growth inhibition value per listed entry
1. CCc1oc2ccccc2c1C(=O)c1cc(Br)c(O)c(Br)c1
2. NC1CCN(c2c(F)cc3c(=O)c(C(=O)O)cn(C4CC4)c3c2Cl)C1 (centres undefined)
3. CCC(=O)O[C@]1(C(=O)CCl)[C@@H](C)C[C@H]2[C@@H]3CCC4=CC(=O)C=C[C@]4(C)[C@@]3(F)[C@@H](O)C[C@@]21C

Result:
1: -1.55; 2: 1.85; 3: 10.2

Task: Can you share its growth inhibition? I mean this compound: CC(NC(=O)Cc1cc(F)cc(F)c1)C(=O)NC(C(=O)OC(C)(C)C)c1ccccc1 (centres undefined)
Result: 1.25

---

Task for the reader: assign each of the following molecules its reported growth inhibition.
system: DIPGX7 (H3.3 K27M diffuse intrinsic pontine glioma line); assay: growth inhibition (% activity, log2 RLU normalised to DMSO / staurosporine); higher = more growth inhibition; details: 33 µM
One number for each entry, in %.

Take a look at these entries with their results.
recordSmiles	growth inhibition / %
CO[C@H]1C[C@@H]2CC[C@@H](C)[C@@](O)(O2)C(=O)C(=O)N2CCCC[C@H]2C(=O)O[C@H]([C@H](C)C[C@@H]2CC[C@@H](OCCO)[C@H](OC)C2)CC(=O)[C@H](C)/C=C(\C)[C@@H](O)[C@@H](OC)C(=O)[C@H](C)C[C@H](C)/C=C/C=C/C=C/1C	3.53
CN1C(C(=O)Nc2ccccn2)=C(O)c2sccc2S1(=O)=O	-0.195

// input: 2 molecules below; output: growth inhibition for each
1. NS(=O)(=O)c1cc2c(cc1Cl)NCNS2(=O)=O
2. CN(C)C(=O)C(CCN1CCC(O)(c2ccc(Cl)cc2)CC1)(c1ccccc1)c1ccccc1

Result:
1. -0.977
2. 9.47

Give one value of growth inhibition per listed molecule.
1. CC[C@H](C)C(=O)O[C@H]1C[C@H](O)C=C2C=C[C@H](C)[C@H](CC[C@@H](O)C[C@@H](O)CC(=O)O)[C@H]21
2. Cc1ccc(O)c([C@H](CCN(C(C)C)C(C)C)c2ccccc2)c1
3. CCCNC(=O)NS(=O)(=O)c1ccc(Cl)cc1
4. Nc1nccs1
5. CCOC(=O)[C@H](CCc1ccccc1)N[C@H]1CCc2ccccc2N(CC(=O)O)C1=O
6. C[C@]12CCC(=O)C=C1[C@@H]1C[C@@H]1[C@H]1[C@@H]3[C@@H]4C[C@@H]4[C@@]4(CCC(=O)O4)[C@@]3(C)CC[C@@H]12
7. C[C@@H]1C/C=C/C=C/C=C/C=C/[C@H](O[C@@H]2O[C@H](C)[C@@H](O)[C@H](N)[C@@H]2O)C[C@@H]2O[C@](O)(C[C@@H](O)C[C@H]3O[C@@H]3/C=C/C(=O)O1)C[C@H](O)[C@H]2C(=O)O

Result:
[5.32, -1.14, 2.73, -0.134, 0.62, 0.0985, 1.64]

---

For each of the molecules below, state its growth inhibition.
test system: DIPGX37 (H3.3 K27M diffuse intrinsic pontine glioma line); test: growth inhibition (% activity, log2 RLU normalised to DMSO / staurosporine); higher = more growth inhibition; conditions: 33 µM
Numeric answer plus unit only.

recordSmiles	testedTarget	growth inhibition
CC1(C)S[C@@H]2[C@H](NC(=O)[C@H](NC(=O)N3CCN(S(C)(=O)=O)C3=O)c3ccccc3)C(=O)N2[C@H]1C(=O)O	DIPGX37	0.368%
Cc1ncc([N+](=O)[O-])n1CCO	DIPGX37	-1.76%
C[C@]12CC[C@@H]3c4ccc(O)cc4CC[C@H]3[C@@H]1CC[C@@H]2O	DIPGX37	1.54%
CN(C/C=C/c1ccccc1)Cc1cccc2ccccc12	DIPGX37	-0.956%
O=C(NCCO[N+](=O)[O-])c1cccnc1	DIPGX37	2.96%
O.O=[Si]=O.O=[Si]=O.O=[Si]=O.O=[Si]=O.[O]=[Mg].[O]=[Mg].[O]=[Mg]	DIPGX37	-0.00885%

The following molecules each have a reported value; give each one's growth inhibition.
1. CCOC(=O)C1=C[C@@H](OC(CC)CC)[C@H](NC(C)=O)[C@@H](N)C1
2. CN1C(C(=O)Nc2ccccn2)=C(O)c2sccc2S1(=O)=O
3. CCCCOc1ccc(OCCCN2CCOCC2)cc1

Result:
1. 0.933%
2. 1.63%
3. 2.14%
